B1: LINE1-mini (parent)
chain: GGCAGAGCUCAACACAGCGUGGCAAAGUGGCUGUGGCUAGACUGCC

- Variants of: B1
- Method description: self-cleavage, relative activity (ratio to wild type); higher = more cleavage; in vitro, sequencing; the parent is a self-cleaving ribozyme
Below, each entry is listed with its recorded self-cleavage.

{"Alteration": "C13G G17C", "self-cleavage": 0.03}
{"Alteration": "C15U G22U", "self-cleavage": 0.78}
{"Alteration": "G1A A24G", "self-cleavage": 2.89}
{"Alteration": "A6G U9C", "self-cleavage": 0.02}
{"Alteration": "C8A U38A", "self-cleavage": 0.26}
{"Alteration": "A6U A16C", "self-cleavage": 0.09}
{"Alteration": "A24G U43A", "self-cleavage": 0.11}
{"Alteration": "A12C A39U", "self-cleavage": 0.02}
{"Alteration": "C3A A6G", "self-cleavage": 0.2}
{"Alteration": "G19C G40U", "self-cleavage": 0.08}
{"Alteration": "G22U C31U", "self-cleavage": 0.4}
{"Alteration": "C13G A16C", "self-cleavage": 0.08}
{"Alteration": "G35U C45G", "self-cleavage": 0.07}
{"Alteration": "G21C G35C", "self-cleavage": 0.08}
{"Alteration": "G5C U38G", "self-cleavage": 0.03}
{"Alteration": "A16G C18U", "self-cleavage": 0.33}
{"Alteration": "G5U A6U", "self-cleavage": 0.16}
{"Alteration": "G1C A6U", "self-cleavage": 0.14}
{"Alteration": "C3G C8A", "self-cleavage": 0.52}
{"Alteration": "G22C C42U", "self-cleavage": 0.21}
{"Alteration": "U20A G40C", "self-cleavage": 0.06}
{"Alteration": "A11C", "self-cleavage": 0.08}
